system: Staphylococcus aureus; assay: Antimicrobial activity against Staphylococcus aureus assessed as zone of inhibition at 75 ug/well after 24 hrs by agar well diffusion method; format: functional; settings: read-out: DIZ
// reported zone of inhibition at 75 µg/disc per item
Please state the figure in mm; there is no need to write the unit.

- compound: "O=C(NS(=O)(=O)c1c(-c2ccccc2)nn(-c2ccccc2)c1-c1ccccc1)c1cccs1"
  reading_unit: "mm"
  zone of inhibition at 75 µg/disc: 18

**Q:** Return zone of inhibition at 75 µg/disc (reported value) for this compound: O=C(NS(=O)(=O)C1C(c2ccccc2)=NOC1c1ccc([N+](=O)[O-])cc1)c1cccs1 (centres undefined)
**A:** 12

**Q:** Hello, please tell me recorded zone of inhibition at 75 µg/disc for this one: "Cc1ccc(-c2onc(-c3ccccc3)c2S(=O)(=O)NC(=O)c2cccs2)cc1"
**A:** 14

**Q:** // fetch zone of inhibition at 75 µg/disc given entry "Cc1ccc(-c2c(S(=O)(=O)NC(=O)c3cccs3)c(-c3ccccc3)nn2-c2ccccc2)cc1"
**A:** 12

**Q:** Consider the compound "O=C(NS(=O)(=O)c1c(-c2ccccc2)noc1-c1ccc([N+](=O)[O-])cc1)c1ccc(Cl)s1" and give its recorded zone of inhibition at 75 µg/disc.
**A:** 30

**Q:** Dear colleague, please send me the reported zone of inhibition at 75 µg/disc for O=C(NS(=O)(=O)C1C(c2ccccc2)=NOC1c1ccc([N+](=O)[O-])cc1)c1ccc(Cl)s1 (centres undefined) when you can.
**A:** 14

---

test system: Pseudomonas aeruginosa; test: Antimicrobial activity against Pseudomonas aeruginosa assessed as zone of inhibition at 50 ug/well after 24 hrs by agar well diffusion method; format: functional; details: read-out: DIZ
measure_name: zone of inhibition at 50 µg/disc (mm)
The answer is to be given in mm; state only the numeric part.

Look over these answered cases.
- item_smiles: "O=C(NS(=O)(=O)c1c(-c2ccccc2)nn(-c2ccccc2)c1-c1ccccc1)c1ccc(Cl)s1"
  assay_value: 14
- item_smiles: "O=C(NS(=O)(=O)/C=C/c1ccccc1)c1ccc(Cl)s1"
  assay_value: 12
- item_smiles: "O=C(NS(=O)(=O)/C=C/c1ccccc1)c1cccs1"
  assay_value: 7
- item_smiles: "O=C(NS(=O)(=O)c1c(-c2ccccc2)noc1-c1ccccc1)c1cccs1"
  assay_value: 11
- item_smiles: "O=C(N[C@H](CO)[C@H](O)c1ccc([N+](=O)[O-])cc1)C(Cl)Cl"
  assay_value: 25

**Q:** Give zone of inhibition at 50 µg/disc for the following molecule: "O=C(NS(=O)(=O)c1c(-c2ccccc2)noc1-c1ccc([N+](=O)[O-])cc1)c1cccs1"
**A:** 21

**Q:** Supply measured zone of inhibition at 50 µg/disc of "O=C(NS(=O)(=O)/C=C/c1ccc([N+](=O)[O-])cc1)c1ccc(Cl)s1" in your reply.
**A:** 19

**Q:** Query zone of inhibition at 50 µg/disc for "O=C(NS(=O)(=O)c1c(-c2ccccc2)nn(-c2ccccc2)c1-c1ccc([N+](=O)[O-])cc1)c1cccs1"
**A:** 20

**Q:** Output measured zone of inhibition at 50 µg/disc for this item: "O=C(NS(=O)(=O)c1c(-c2ccccc2)noc1-c1ccc([N+](=O)[O-])cc1)c1ccc(Cl)s1"
**A:** 23
